All figures here come from PubChem BioAssay.

- test-target: Homeobox protein Hox-A13 (Mus musculus) (UniProt Q62424)
- Sequence (Q62424 whole entry, looked up): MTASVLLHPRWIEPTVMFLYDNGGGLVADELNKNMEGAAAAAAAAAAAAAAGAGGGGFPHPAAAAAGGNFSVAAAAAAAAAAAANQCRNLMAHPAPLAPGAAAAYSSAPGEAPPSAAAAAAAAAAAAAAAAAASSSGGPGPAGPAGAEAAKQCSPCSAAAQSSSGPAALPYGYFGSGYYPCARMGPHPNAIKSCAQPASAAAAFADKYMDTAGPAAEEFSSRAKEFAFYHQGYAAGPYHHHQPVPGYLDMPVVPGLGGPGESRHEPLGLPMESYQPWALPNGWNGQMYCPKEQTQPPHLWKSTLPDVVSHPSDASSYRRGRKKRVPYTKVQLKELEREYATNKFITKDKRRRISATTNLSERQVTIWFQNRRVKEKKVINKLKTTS
- assay-procedure: inhibitors of HoxA13-DNA binding, primary screen, biochemical, fluorescence polarization, labeled oligonucleotide (AID 1185)
- study-conditions: 15 min, higher = more signal, called active from +8 up or from −8 down
Classification field: enter met for z-score values not below -4, not met for values below it.

Study these solved cases before continuing.
O=C1O[C@H](c2ccccc2)[C@H](c2ccccc2)N2[C@H]1[C@@H](C(=O)NC[C@H](O)c1ccccc1)[C@]1(C(=O)Nc3ccccc31)[C@H]2c1ccc(OCCO)cc1
not met
COC(=O)[C@@]1(Cc2ccccc2)[C@H]2c3cc(C(=O)N4CCCC4)n(CC4CC4)c3C[C@H]2CN1C(=O)c1ccccc1
not met
CN1C(=O)C2C=CC(C(O)C3=C[C@H]4C[C@@H](C3)C4(C)C)N(Nc3ccccc3)C2C1=O (stereo partly drawn)
met
COc1ccc([Si](C)(C)[C@@H]2[C@@H](CCO)O[C@]3(C(=O)N(Cc4ccc(N5C(=O)COc6ccccc65)cc4)c4ccccc43)[C@H]2C)cc1
met
CN(C)CCCNC(=O)[C@@]1(c2ccc([N+](=O)[O-])cc2)CC(=O)N(C2CCCCC2)[C@@H]1c1ccc(CO)cc1I
met

Dear colleague, could you confirm whether COCC(=C=CC[C@H](O)c1ccccc1OCCO)C[C@H](O)c1cc(Cl)cc(Cl)c1O has z-score at or above -4?
met

Dear colleague, could you confirm whether CCOC(=O)C[C@H]1[C@H](OC(=O)Cc2ccc3c(c2)OCO3)[C@@H](NC(=O)c2ccc(-c3ccccc3)cc2)c2cc(OCCCO)ccc2N1C(=O)Cc1ccc(OC)cc1 has z-score at or above -4?
met

Dear colleague, could you confirm whether COCCn1c(C(=O)N2CCCC2)cc2c1C[C@H]1CN(C(=O)c3ccccc3)[C@@](Cc3ccc(F)cc3)(C(=O)OC)[C@@H]21 has z-score at or above -4?
not met
